FYI, the data here is from patent US20250145589A1.

system: MIA PaCa-2 cells (KRAS G12C mutant); assay: MIA PaCa-2 cell anti-proliferation (CellTiter-Glo); format: cell-based; settings: Homo sapiens, 72 h; MIA Paca-2 cells, 3 days, Table 7; read-out: MIA PaCa-2 (IC50)
Reported IC50 by item:
I'd appreciate it if you included the unit after the number.

Here are 5 molecules together with their reported answers.
{"ENTRY_SMILES": "COc1ncc(-c2ccc3ncnc(C4=CCN(C(=O)/C=C/C(C)=O)CC4)c3c2)cc1NS(=O)(=O)c1c(F)cccc1Cl", "TARGET_OR_TEST_SYSTEM": "MIA PaCa-2 cells (KRAS G12C mutant)", "ASSAY_ENDPOINT": "IC50", "OBSERVED_VALUE": "11.6 nM"}
{"ENTRY_SMILES": "COc1ncc(-c2ccc3ncnc(N4CCN(C(=O)/C=C/C(C)=O)CC4)c3c2)cc1NS(=O)(=O)c1c(F)cncc1F", "TARGET_OR_TEST_SYSTEM": "MIA PaCa-2 cells (KRAS G12C mutant)", "ASSAY_ENDPOINT": "IC50", "OBSERVED_VALUE": "142 nM"}
{"ENTRY_SMILES": "COc1ncc(-c2ccc3ncnc(N4CCN(C(=O)/C=C/C(C)=O)CC4)c3n2)cc1NS(=O)(=O)c1c(F)cncc1F", "TARGET_OR_TEST_SYSTEM": "MIA PaCa-2 cells (KRAS G12C mutant)", "ASSAY_ENDPOINT": "IC50", "OBSERVED_VALUE": "47.7 nM"}
{"ENTRY_SMILES": "COc1ncc(-c2ccc3ncnc(N4CCN(C(=O)/C=C/C(C)=O)CC4)c3c2)cc1NS(=O)(=O)c1ccc(C(F)(F)F)cc1F", "TARGET_OR_TEST_SYSTEM": "MIA PaCa-2 cells (KRAS G12C mutant)", "ASSAY_ENDPOINT": "IC50", "OBSERVED_VALUE": "58.4 nM"}
{"ENTRY_SMILES": "COc1ncc(-c2ccc3ncnc(N4CCN(C(=O)/C=C\\C(=O)C(F)(F)F)CC4)c3c2)cc1NS(=O)(=O)c1ccc(F)cc1F", "TARGET_OR_TEST_SYSTEM": "MIA PaCa-2 cells (KRAS G12C mutant)", "ASSAY_ENDPOINT": "IC50", "OBSERVED_VALUE": "44.1 nM"}

For record COc1ncc(-c2ccc3ncnc(N4CCN(C(=O)/C=C/C(C)=O)CC4)c3c2)cc1NS(=O)(=O)c1cc(Cl)cn1C the listed IC50 is 139 nM

For record C=CS(=O)(=O)N1CCN(c2ncnc3ccc(-c4cnc(OC)c(NS(=O)(=O)c5ccc(F)cc5F)c4)cc23)CC1 the listed IC50 is 73.3 nM

For record COc1ncc(-c2ccc3ncnc(N4CCN(C(=O)/C=C/C(C)=O)CC4)c3c2)cc1NS(=O)(=O)c1c(F)cc(F)cc1F the listed IC50 is 16.7 nM

For record COc1ncc(-c2ccc3ncnc(N4CCN(C(=O)/C=C/C(C)=O)CC4)c3n2)cc1NS(=O)(=O)c1ccccc1F the listed IC50 is 12 nM

For record C=CC(=O)N1CCN(c2ncnc3ccc(-c4cnc(OC)c(NS(C)(=O)=O)c4)cc23)CC1 the listed IC50 is 494 nM

For record CC(=O)/C=C/C(=O)N1CCN(c2ncnc3ccc(-c4cnc(OCC(F)(F)F)c(NS(=O)(=O)c5ccc(F)cc5F)c4)cc23)CC1 the listed IC50 is 357 nM

For record CC(=O)/C=C/C(=O)N1CCN(c2ncnc3ccc(-c4cnc(OC(F)(F)F)c(NS(=O)(=O)c5ccc(F)cc5F)c4)cc23)CC1 the listed IC50 is 782 nM

For record COc1ncc(-c2ccc3ncnc(N4CC5CCC(C4)N5C(=O)/C=C/C(C)=O)c3n2)cc1NS(=O)(=O)c1c(F)cccc1F the listed IC50 is 6.8 nM
